// reported NanoBRET Abs IC50 for each item listed
# Measured Target: T1, B-cat-Halo (UniProt P35222 1-781, HaloTag NanoBRET 618 Ligand bound in the assay)
# T1 sequence (looked up): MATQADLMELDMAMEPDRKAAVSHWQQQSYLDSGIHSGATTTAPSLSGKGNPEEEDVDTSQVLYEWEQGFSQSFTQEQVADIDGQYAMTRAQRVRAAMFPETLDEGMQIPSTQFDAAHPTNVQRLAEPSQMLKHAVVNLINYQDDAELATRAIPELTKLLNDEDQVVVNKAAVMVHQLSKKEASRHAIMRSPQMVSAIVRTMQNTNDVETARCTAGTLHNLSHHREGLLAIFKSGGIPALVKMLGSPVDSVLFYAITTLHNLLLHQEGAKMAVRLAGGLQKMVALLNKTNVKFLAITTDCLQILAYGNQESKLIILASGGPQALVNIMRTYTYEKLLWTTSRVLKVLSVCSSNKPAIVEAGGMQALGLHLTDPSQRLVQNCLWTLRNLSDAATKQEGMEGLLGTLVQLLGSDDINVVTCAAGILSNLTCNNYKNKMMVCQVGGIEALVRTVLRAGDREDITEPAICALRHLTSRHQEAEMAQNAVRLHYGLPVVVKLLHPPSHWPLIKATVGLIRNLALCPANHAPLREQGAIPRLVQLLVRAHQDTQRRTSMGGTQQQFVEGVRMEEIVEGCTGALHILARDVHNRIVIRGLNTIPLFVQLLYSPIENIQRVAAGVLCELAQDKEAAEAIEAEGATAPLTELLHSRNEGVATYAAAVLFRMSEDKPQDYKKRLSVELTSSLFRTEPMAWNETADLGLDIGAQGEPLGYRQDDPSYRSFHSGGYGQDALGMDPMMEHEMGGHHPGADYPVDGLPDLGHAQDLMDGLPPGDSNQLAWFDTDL
# Assay Summary: cell-based or functional assay
Starred links: 1 amine or outer side, 2 acyl side, 3 side chain; linkers in the order of their positions; H or OH if unused. Positions of bridges follow the written chain, without caps; N, C: chain ends. Non-standard residues stand in square brackets, D forms with d. Primed or numbered codes have the meaning given here. PyrS2″ = (S)-3-amino-1-((pent-4-en-1-yloxy)carbonyl)pyrrolidine-3-carboxylic acid (stapling residue), C=CCCCOC(=O)N1CC[C@@](N[*:1])(C(=O)[*:2])C1; B5(4) = 2,2-bis(4-pentenyl)glycine = 2-amino-2-(pent-4-en-1-yl)hept-6-enoic acid (stitching residue), C=CCCCC(CCCC=C)(N[*:1])C(=O)[*:2]; AcLys″ = N6-acetyl-lysine, CC(=O)NCCCC[C@H](N[*:1])C(=O)[*:2]; Phe(3-COOH) = N[C@@H](Cc1cccc(C(=O)O)c1)C(=O)O; 2F3MeF = Cc1cccc(C[C@H](N[*:1])C(=O)[*:2])c1F; Phe(2-CF3) = N[C@@H](Cc1ccccc1C(F)(F)F)C(=O)O; AcLys = CC(=O)NCCCC[C@H](N[*:1])C(=O)[*:2]; Bta = N[C@@H](Cc1csc2ccccc12)C(=O)O; αAllylPro = C=CC[C@@]1(C(=O)O)CCCN1; tBuAla = CC(C)(C)C[C@H](N)C(=O)O; 3Thi = N[C@@H](Cc1ccsc1)C(=O)O; Nle = CCCC[C@H](N)C(=O)O; Aib = CC(C)(N)C(=O)O
I'd appreciate it if you wrote the number followed by its unit.

Example entries begin here.
[
  {
    "Binder": "Ac-[αAllylPro]D[tBuAla][B5(4)]D[Phe(3-COOH)]AAFF[PyrS2″][Phe(2-CF3)][Bta][MorphGln]-NH2 (staple 1-4, 4-11) [I-2543]",
    "NanoBRET Abs IC50": "7.3 µM"
  },
  {
    "Binder": "Ac-[αAllylPro]D[tBuAla][B5(4)]D[Phe(3-COOH)]AAF[Me2Gln][PyrS2″][2F3MeF][Bta][Me2Gln]-NH2 (staple 1-4, 4-11; not fully specified; printed as Ac-PL3-Asp-Npg-B5-Asp-3COOHF-Ala-Ala-Phe-Me2Gln-PyrS2-2F3MeF-BztA-Me2Gln-NH2) [I-2535]",
    "NanoBRET Abs IC50": "3.7 µM"
  },
  {
    "Binder": "Ac-[αAllylPro]D[tBuAla][B5(4)]D[Phe(3-COOH)]AAF[Me2Gln][PyrS2″][2F3MeF][Bta][Me2Gln]-NH2 (staple 1-4, 4-11; not fully specified; printed as Ac-PL3-Asp-Npg-B5-Asp-3COOHF-Ala-Ala-Phe-Me2Gln-PyrS2-2F3MeF-BztA-Me2Gln-NH2) [I-2536]",
    "NanoBRET Abs IC50": "4.5 µM"
  },
  {
    "Binder": "Ac-[αAllylPro]D[tBuAla][B5(4)]D[Phe(3-COOH)]AAFF[PyrS2″][Phe(2-CF3)][Bta][Me2Gln]-NH2 (staple 1-4, 4-11) [I-2534]",
    "NanoBRET Abs IC50": "4.4 µM"
  },
  {
    "Binder": "Ac-[αAllylPro]D[tBuAla][B5(4)]D[Phe(3-COOH)]AAF[AcLys″][PyrS2″][Phe(2-CF3)][Bta][Me2Gln]-NH2 (staple 1-4, 4-11; not fully specified; printed as Ac-PL3-Asp-Npg-B5-Asp-3COOHF-Ala-Ala-Phe-AcLys-PyrS2-2F3MeF-BztA-Me2Gln-NH2) [I-2540]",
    "NanoBRET Abs IC50": "3.5 µM"
  },
  {
    "Binder": "Ac-[αAllylPro]D[tBuAla][B5(4)]D[Phe(3-COOH)]AAF[Nle][PyrS2″][2F3MeF][Bta][Me2Gln]-NH2 (staple 1-4, 4-11) [I-2533]",
    "NanoBRET Abs IC50": "6.2 µM"
  },
  {
    "Binder": "Ac-[αAllylPro]D[tBuAla][B5(4)]D[Phe(3-COOH)]AAF[AcLys][PyrS2″][2F3MeF][Bta][MorphGln]-NH2 (staple 1-4, 4-11; not fully specified; printed as Ac-PL3-Asp-Npg-B5-Asp-3COOHF-Ala-Ala-Phe-AcLys-PyrS2-2F3MeF-BztA-MorphGln-NH2) [I-2549]",
    "NanoBRET Abs IC50": "2.5 µM"
  },
  {
    "Binder": "Ac-[αAllylPro]D[tBuAla][B5(4)]D[Phe(3-COOH)]AAF[AcLys][PyrS2″][2F3MeF][Bta][MorphGln]-NH2 (staple 1-4, 4-11; not fully specified; printed as Ac-PL3-Asp-Npg-B5-Asp-3COOHF-Ala-Ala-Phe-AcLys-PyrS2-2F3MeF-BztA-MorphGln-NH2) [I-2548]",
    "NanoBRET Abs IC50": "3.6 µM"
  },
  {
    "Binder": "Ac-[αAllylPro]D[tBuAla][B5(4)]D[Phe(3-COOH)]AAF[Me2Gln][PyrS2″][2F3MeF][Bta][MorphGln]-NH2 (staple 1-4, 4-11; not fully specified; printed as Ac-PL3-Asp-Npg-B5-Asp-3COOHF-Ala-Ala-Phe-Me2Gln-PyrS2-2F3MeF-BztA-MorphGln-NH2) [I-2544]",
    "NanoBRET Abs IC50": "4.1 µM"
  }
]

Now, please, on to the next binder.
Exercise: Any idea what NanoBRET Abs IC50 was measured for Ac-[αAllylPro]D[tBuAla][B5(4)]D[Phe(3-COOH)][Aib]AF[Nle][PyrS2″][3Thi][Bta][(NHEt)GlnR]-NH2 (staple 1-4, 4-11) [I-2552] ?
Solution: 10.4 µM
